- TEST_TARGET: E-selectin (Homo sapiens, UniProt P16581)
- Sequence (P16581 whole entry): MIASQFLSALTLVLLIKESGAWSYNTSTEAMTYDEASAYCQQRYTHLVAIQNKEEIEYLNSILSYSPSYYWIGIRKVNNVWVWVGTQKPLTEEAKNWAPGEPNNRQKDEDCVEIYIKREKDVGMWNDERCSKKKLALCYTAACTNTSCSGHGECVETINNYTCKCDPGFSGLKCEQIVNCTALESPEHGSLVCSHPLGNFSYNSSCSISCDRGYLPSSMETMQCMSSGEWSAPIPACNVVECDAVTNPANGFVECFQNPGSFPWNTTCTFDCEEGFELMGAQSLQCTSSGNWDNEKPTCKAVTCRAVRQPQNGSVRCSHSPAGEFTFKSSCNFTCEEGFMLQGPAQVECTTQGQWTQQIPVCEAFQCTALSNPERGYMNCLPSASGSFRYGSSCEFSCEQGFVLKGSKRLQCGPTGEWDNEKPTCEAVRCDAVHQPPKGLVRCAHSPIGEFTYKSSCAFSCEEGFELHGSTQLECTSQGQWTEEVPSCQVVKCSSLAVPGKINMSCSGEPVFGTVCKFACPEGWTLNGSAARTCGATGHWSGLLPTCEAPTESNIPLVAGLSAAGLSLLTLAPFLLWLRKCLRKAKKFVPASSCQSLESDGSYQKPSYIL
- PROTOCOL_SUMMARY: In vitro inhibition of HL60 (human leukemia) cell binding to human recombinant e-selectin.
pIC50: −log10 of the molar value.
Decide using pIC50: a value greater than or equal to 2 is label 1, a smaller one is label 0.

Q: For this compound, is measured pIC50 2 or higher? CC(=O)N[C@H]1[C@H]([C@H](O)[C@H](O)CO)O[C@@](O[C@H]2[C@@H](O)[C@@H](CO)O[C@@H](O[C@@H]([C@H](O[C@@H]3O[C@@H](C)[C@@H](O)[C@@H](O)[C@@H]3O)[C@H](C=O)NC(C)=O)[C@H](O)CO)[C@@H]2O)(C(=O)O)C[C@@H]1O [SIALYL LEWIS X]
Ans: label 1

Turning now to a further compound:
Q: Say whether CC(C(=O)O)c1cccc(-c2ccccc2O[C@H]2O[C@H](CO)[C@@H](O)[C@@H](O)[C@@H]2O)c1 (stereo in doubt; 9s) shows pIC50 of 2 or more.
Ans: label 0

Source listed as ChEMBL document CHEMBL1128216.
